Below: a set of entries, each annotated with reported Bmax (MFI).
Molecular target: T1, human ROR1 (hROR1) (human, UniProt Q01973 30-937)
T1 construct: On HCT116-hROR1 transfectants, Mino cells or Ntera-2 cells, as the assay of each row says; also called receptor tyrosine kinase like orphan receptor 1
Test: flow cytometry, HCT116-hROR1 cells

Binder | Bmax (MFI)
SRP2196-B06 (antibody, V domains shown, His/FLAG-tagged IgG1) VH: EVQLVESGGGLVQPGGSLRLSCAASGFNITGYYIHWVRQAPGKGLEWVGQISPNSGSTYSADSVKGRFTISADTSKNTAYLQMNSLRAEDTAVYYCARDSRRYVLSWDYWGQGTLVTVSS VL: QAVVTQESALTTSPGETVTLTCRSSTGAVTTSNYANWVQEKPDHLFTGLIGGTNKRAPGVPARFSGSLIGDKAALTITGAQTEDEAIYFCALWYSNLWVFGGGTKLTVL | 14800
SRP2196-A11 (antibody, V domains shown, His/FLAG-tagged IgG1) VH: EVQLVESGGGLVQPGGSLRLSCAASGFNITGYYIHWVRQAPGKGLEWVGQISPNSGTTYDADSVKGRFTISADTSKNTAYLQMNSLRAEDTAVYYCARDSRRYVRGWDYWGQGTLVTVSS VL: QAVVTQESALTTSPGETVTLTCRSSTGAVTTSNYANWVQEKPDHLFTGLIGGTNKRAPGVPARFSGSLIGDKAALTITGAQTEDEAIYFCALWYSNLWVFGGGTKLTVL | 14000
SRP2196-B01 (antibody, V domains shown, His/FLAG-tagged IgG1) VH: EVQLVESGGGLVQPGGSLRLSCAASGFNITGYYIHWVRQAPGKGLEWVGQISPNSGYTYYADSVKGRFTISADTSKNTTYLQMNSLRAEDTAVYYCARDSRRYVRSWDYWGQGTLVTVSS VL: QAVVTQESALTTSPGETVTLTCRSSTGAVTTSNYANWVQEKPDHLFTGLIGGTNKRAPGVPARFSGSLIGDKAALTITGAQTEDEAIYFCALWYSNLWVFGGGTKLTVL | 15300
SRP2196-B02 (antibody, V domains shown, His/FLAG-tagged IgG1) VH: EVQLVESGGGLVQPGGSLRLSCAASGFNITQYYIHWVRQAPGKGLEWVGYISPNSGQTYDADSVKGRFTISADTSKNTAYLQMNSLRAEDTAVYYCARDSRRYVRSWDYWGQGTLVTVSS VL: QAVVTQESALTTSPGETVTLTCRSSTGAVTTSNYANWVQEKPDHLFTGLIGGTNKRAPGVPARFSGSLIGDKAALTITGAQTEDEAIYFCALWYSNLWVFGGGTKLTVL | 14900
SRP2196-B08 (antibody, V domains shown, His/FLAG-tagged IgG1) VH: EVQLVESGGGLVQPGGSLRLSCAASGFNITGYYIHWVRQAPGKGLEWVGQISPNSGYTYLADSVKGRFTISADTSKNTAYLQMNSLRAEDTAVYYCARDSRRYVRGWDYWGQGTLVTVSS VL: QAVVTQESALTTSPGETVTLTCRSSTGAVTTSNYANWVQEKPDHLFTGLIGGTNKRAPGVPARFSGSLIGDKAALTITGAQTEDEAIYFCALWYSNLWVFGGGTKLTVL | 14400
SRP2196-A06 (antibody, V domains shown, His/FLAG-tagged IgG1) VH: EVQLVESGGGLVQPGGSLRLSCAASGFNITGYYIHWVRQAPGKGLEWVGQISPNSGSTHQADSVKGRFTISADTSKNTAYLQMNSLRAGDTAVYYCARDSRRYVRGWDYWGQGTLVTVSS VL: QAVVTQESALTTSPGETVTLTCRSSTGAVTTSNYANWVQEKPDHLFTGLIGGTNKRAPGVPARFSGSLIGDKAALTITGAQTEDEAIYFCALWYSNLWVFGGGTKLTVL | 14600

Where these numbers come from: patent US20240058465A1
